test: Pharmacokinetic test in monkeys; assay type: in vivo, Cynomolgus macaques; conditions: male, cynomolgus monkey, plasma, PO 5 mg/kg
Result Type: half-life (h)
Hi! Could you send only the number? It should be in h, unit omitted.

What half-life value was documented for this molecule, `[2H]C([2H])([2H])N(c1nc(-c2ccc(F)cc2)c(C#N)s1)c1c(CC)nn2cc(F)c(N3CCN(CC(=O)N4CC(O)C4)CC3)cc12` ?
4.02

---

experiment: Pharmacokinetic test in rats; assay type: in vivo; settings: male, SD, rat, plasma, PO 5 mg/kg
Result Type: Tmax (h)
Hi! Could you send only the number? It should be in h, unit omitted.

>>> data_value("[2H]c1c([2H])c(-c2nc(N(C)c3c(CC)nn4cc(F)c(N5CCN(CC(=O)N6CC(O)C6)CC5)cc34)sc2C#N)c([2H])c([2H])c1F")
1.17
>>> data_value("[2H]c1c([2H])c(-c2nc(N(c3c(CC)nn4cc(F)c(N5CCN(CC(=O)N6CC(O)C6)CC5)cc34)C([2H])([2H])[2H])sc2C#N)c([2H])c([2H])c1F")
2.83
>>> data_value("[2H]C([2H])([2H])N(c1nc(-c2ccc(F)cc2)c(C#N)s1)c1c(C([2H])([2H])C([2H])([2H])[2H])nn2cc(F)c(N3CCN(CC(=O)N4CC(O)C4)CC3)cc12")
4.33

Next up:
What Tmax value was documented for this molecule, `[2H]C([2H])([2H])C([2H])([2H])c1nn2cc(F)c(N3CCN(CC(=O)N4CC(O)C4)CC3)cc2c1N(C)c1nc(-c2ccc(F)cc2)c(C#N)s1` ?
4

---

assay: Pharmacokinetic test in dogs; format: in vivo, male beagles; settings: male, beagle, dog, plasma, IV 1 mg/kg
Result Type: AUC (ng·h/mL)
Hi! Could you send only the number? It should be in ng·h/mL, unit omitted.

What AUC value was documented for this compound, `[2H]C([2H])([2H])N(c1nc(-c2ccc(F)cc2)c(C#N)s1)c1c(CC)nn2cc(F)c(N3CCN(CC(=O)N4CC(O)C4)CC3)cc12` ?
6840

---

assay: Pharmacokinetic test in monkeys; type: in vivo, Cynomolgus macaques; settings: male, cynomolgus monkey, plasma, PO 5 mg/kg
Result Type: AUC (ng·h/mL)
Hi! Could you send only the number? It should be in ng·h/mL, unit omitted.

What AUC value was documented for this compound, `[2H]C([2H])([2H])N(c1nc(-c2ccc(F)cc2)c(C#N)s1)c1c(CC)nn2cc(F)c(N3CCN(CC(=O)N4CC(O)C4)CC3)cc12` ?
3120

---

pIC50: recorded values
target: autocrine motility factor (Homo sapiens); construct: Whole blood was anticoagulated with heparin and centrifuged, and then plasma was collected; from tissue; host or cells: pooled human plasma (heparin-anticoagulated whole blood); assay: Inhibition of LPA formation in mixed ex vivo human plasma; type: biochemical; details: 37° C., 2 h, LPA 18:2 by LC-MS/MS, read-out: IC50 for inhibiting LPA formation (18:2)
The value called pIC50 is obtained by taking minus log10 of the concentration in mol/L.

Examples with their reported pIC50 follow.
>>> data_value("[2H]C([2H])([2H])N(c1nc(-c2ccc(F)cc2)c(C#N)s1)c1c(CC)nn2cc(F)c(N3CCN(CC(=O)N4CC(O)C4)CC3)cc12 [Compound 3]")
7.37
>>> data_value("[2H]C1([2H])N(CC(=O)N2CC(O)C2)C([2H])([2H])C([2H])([2H])N(c2cc3c(N(C)c4nc(-c5ccc(F)cc5)c(C#N)s4)c(CC)nn3cc2F)C1([2H])[2H] [Compound 4]")
7.29

What pIC50 value was documented for this compound, [2H]C([2H])([2H])C([2H])([2H])c1nn2cc(F)c(N3CCN(CC(=O)N4CC(O)C4)CC3)cc2c1N(C)c1nc(-c2ccc(F)cc2)c(C#N)s1 [Compound 1] ?
7.34

What pIC50 value was documented for this compound, [2H]C([2H])([2H])N(c1nc(-c2ccc(F)cc2)c(C#N)s1)c1c(C([2H])([2H])C([2H])([2H])[2H])nn2cc(F)c(N3CCN(CC(=O)N4CC(O)C4)CC3)cc12 [Compound 2] ?
7.28

---

assay: Pharmacokinetic test in rats; assay type: in vivo; details: male, SD, rat, plasma, PO 5 mg/kg
AUC: recorded values
Hi! Could you send only the number? It should be in ng·h/mL, unit omitted.

What AUC value was documented for this molecule, `[2H]C([2H])([2H])C([2H])([2H])c1nn2cc(F)c(N3CCN(CC(=O)N4CC(O)C4)CC3)cc2c1N(C)c1nc(-c2ccc(F)cc2)c(C#N)s1` ?
1170

What AUC value was documented for this molecule, `[2H]c1c([2H])c(-c2nc(N(c3c(CC)nn4cc(F)c(N5CCN(CC(=O)N6CC(O)C6)CC5)cc34)C([2H])([2H])[2H])sc2C#N)c([2H])c([2H])c1F` ?
1960

What AUC value was documented for this molecule, `[2H]C([2H])([2H])N(c1nc(-c2ccc(F)cc2)c(C#N)s1)c1c(C([2H])([2H])C([2H])([2H])[2H])nn2cc(F)c(N3CCN(CC(=O)N4CC(O)C4)CC3)cc12` ?
2570

What AUC value was documented for this molecule, `[2H]c1c([2H])c(-c2nc(N(C)c3c(CC)nn4cc(F)c(N5CCN(CC(=O)N6CC(O)C6)CC5)cc34)sc2C#N)c([2H])c([2H])c1F` ?
2420

---

assay: Pharmacokinetic test in rats; format: in vivo; settings: male, SD, rat, plasma, IV 1 mg/kg
Result Type: AUC

>>> data_value("[2H]c1c([2H])c(-c2nc(N(c3c(CC)nn4cc(F)c(N5CCN(CC(=O)N6CC(O)C6)CC5)cc34)C([2H])([2H])[2H])sc2C#N)c([2H])c([2H])c1F [Compound 10]")
"1050 ng·h/mL"
>>> data_value("[2H]c1c([2H])c(-c2nc(N(C)c3c(CC)nn4cc(F)c(N5CCN(CC(=O)N6CC(O)C6)CC5)cc34)sc2C#N)c([2H])c([2H])c1F [Compound 9]")
"943 ng·h/mL"
>>> data_value("[2H]C([2H])([2H])C([2H])([2H])c1nn2cc(F)c(N3CCN(CC(=O)N4CC(O)C4)CC3)cc2c1N(C)c1nc(-c2ccc(F)cc2)c(C#N)s1 [Compound 1]")
"1060 ng·h/mL"

What AUC value was documented for this molecule, [2H]C([2H])([2H])N(c1nc(-c2ccc(F)cc2)c(C#N)s1)c1c(C([2H])([2H])C([2H])([2H])[2H])nn2cc(F)c(N3CCN(CC(=O)N4CC(O)C4)CC3)cc12 [Compound 2] ?
1330 ng·h/mL

---

experiment: Pharmacokinetic test in monkeys; assay type: in vivo, Cynomolgus macaques; conditions: male, cynomolgus monkey, plasma, IV 1 mg/kg, read-out: C0 or Cmax
Result Type: Cmax (ng/mL)
Hi! Could you send only the number? It should be in ng/mL, unit omitted.

What Cmax value was documented for this compound, [2H]C([2H])([2H])N(c1nc(-c2ccc(F)cc2)c(C#N)s1)c1c(CC)nn2cc(F)c(N3CCN(CC(=O)N4CC(O)C4)CC3)cc12 [Compound 3] ?
1040

---

assay: Dynamic solubility test in water and biological vehicles; assay type: physicochemical; conditions: fasted-state simulated intestinal fluid (FaSSIF), pH 6.5, thermodynamic from solid; vehicle FaSSIF, 4 h, 37° C.; read-out: S: Solubility
Result Type: solubility at 4 h (µg/mL)
Hi! Could you send only the number? It should be in µg/mL, unit omitted.

What solubility at 4 h value was documented for this molecule, [2H]C([2H])([2H])N(c1nc(-c2ccc(F)cc2)c(C#N)s1)c1c(CC)nn2cc(F)c(N3CCN(CC(=O)N4CC(O)C4)CC3)cc12 [Compound A Crystal form I] ?
360
